Listed here: items and their measured IC50 at 3 days.
Assay: in vitro
Details: human
measured metric: IC50 at 3 days

# compound, result
records = [
    ("C[C@@H]1C[C@@H](O)[C@]2(C)[C@@H](C)C(=O)CC[C@H]2[C@]1(C)COc1ccc2ccc(=O)oc2c1 (single isomer, unassigned)", "> 20 µg/mL"),
    ("CC(=O)O[C@H](CC/C(C)=C/CC/C(C)=C/COc1ccc2ccc(=O)oc2c1)C(C)(C)O [Compound 2, 10′R-Acetoxy-11′-hydroxyumbelliprenin]", "> 20 µg/mL"),
]

====

Test system: influenza A virus (H1N1)
Assay: microbe, parasite or virus in culture
Format: cell-based
Conditions: Influenza A virus, H1N1, 72 h; MDCK cells, XTT, 3 days; concentration achieving 50% cytoprotection; read-out: IC50, influenza A (H1N1) antiviral activity
measured metric: IC50

# compound, result
rows = [
    ("CC(=O)O[C@H](CC/C(C)=C/CC/C(C)=C/COc1ccc2ccc(=O)oc2c1)C(C)(C)O [Compound 2, 10′R-Acetoxy-11′-hydroxyumbelliprenin]", "0.94 µg/mL"),
    ("CC(C)=C1CC[C@H](C)[C@](C)(COc2ccc3ccc(=O)oc3c2)[C@H]1CCC(=O)O", "0.45 µg/mL"),
    ("CC1=CC[C@@H]2C(C)(C)[C@@H](O)CC[C@@]2(C)[C@@H]1COc1ccc2ccc(=O)oc2c1", "0.47 µg/mL"),
    ("COC(=O)CC[C@H]1C(=C(C)C)CC[C@H](C)[C@]1(C)COc1ccc2ccc(=O)oc2c1 [Compound 7, methyl galbanate]", "0.26 µg/mL"),
]
